% IC50 to SO35-hIgG1 values for the binders below.
- targetOrSystem: T1, human PVRIG-mFc protein (Acro, PVG-H5253) (human, UniProt Q6DKI7 41-171, limits assumed)
- T1 construct: extracellular domain; Bought protein; also called PVRIG-ECD-mFc; not shown: mouse Fc tag of the bought protein
- T1 sequence (looked up): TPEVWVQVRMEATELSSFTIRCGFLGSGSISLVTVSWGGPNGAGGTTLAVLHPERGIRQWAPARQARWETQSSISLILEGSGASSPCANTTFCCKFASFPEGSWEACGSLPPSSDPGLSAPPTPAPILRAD
- procedureSummary: FACS blocking of PVRIG-mFc binding to CHO-K1-CD112 cells; competitor CD112
Report the figure in % without appending any unit label.

% IC50 to SO35-hIgG1 reported for this binder PVRIG-A105-H3a (Fc fusion, VHH-human IgG1 Fc format is stated for the parental VHH antibodies; not restated for the humanized variants; also called A105.VH3a; not shown: human IgG1 hinge-CH2-CH3 (Fc)) EVQLVESGGGLVQPGGSLRLSCAASGRTFDRHTMTWFRQAPGKEREFVATASRIPGDTYYVDSVKGRFTISRDNAKNSVYLQMNSLRAEDTAVYYCAATSAYSSEVDSYEKGSWYDNWGQGTMVTVSS : 2590

% IC50 to SO35-hIgG1 reported for this binder PVRIG-A50-H1a (Fc fusion, VHH-human IgG1 Fc format is stated for the parental VHH antibodies; not restated for the humanized variants; also called A50.VH1a; not shown: human IgG1 hinge-CH2-CH3 (Fc)) EVQLVESGGGLVQPGGSLRLSCAASGFTFSYYDMSWVRQAPGKGLEWVSTINSDGGRTSYVDSVKGRFTISRDNSKNTLYLQMNSLRAEDTAVYYCVEGDPHNFGLENLSLRDFGSWGQGTMVTVSS : 93

% IC50 to SO35-hIgG1 reported for this binder PVRIG-A105-H2 (Fc fusion, VHH-human IgG1 Fc format is stated for the parental VHH antibodies; not restated for the humanized variants; also called A105 VH2; not shown: human IgG1 hinge-CH2-CH3 (Fc)) EVQLVESGGGLVQPGGSLRLSCAASGRTFDRHTMTWFRQAPGKEREFVATASRIPGDTYYVDSVKGRFTISRDNAKNSLYLQMNSLRAEDTAVYYCAATSAYCSEVDCYEKGSWYDNWGQGTMVTVSS : 92.3

% IC50 to SO35-hIgG1 reported for this binder PVRIG-A50 (Fc fusion, Alpaca VHH expressed as VHH-hinge-CH2-CH3 of human IgG1 (heavy-chain antibody); also called PVRIG-50; not shown: human IgG1 hinge-CH2-CH3 (Fc)) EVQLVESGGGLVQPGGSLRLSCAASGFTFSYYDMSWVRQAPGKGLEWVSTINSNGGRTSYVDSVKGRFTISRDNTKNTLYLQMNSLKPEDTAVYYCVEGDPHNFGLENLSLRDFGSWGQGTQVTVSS : 90.6

Source listed as patent US20240343803A1.
